B1: Haloalkane dehalogenase, D4Z2G1 (parent)
chain: MSLGAKPFGEKKFIEIKGRRMAYIDEGTGDPILFQHGNPTSSYLWRNIMPHCAGLGRLIACDLIGMGDSDKLDPSGPERYAYAEHRDYLDALWEALDLGDRVVLVVHDWGSALGFDWARRHRERVQGIAYMEAIAMPIEWADFPEQDRDLFQAFRSQAGEELVLQDNVFVEQVLPGLILRPLSEAEMAAYREPFLAAGEARRPTLSWPRQIPIAGTPADVVAIARDYAGWLSESPIPKLFINAEPGALTTGRMRDFCRTWPNQTEITVAGAHFIQEDSPDEIGAAIAAFVRRLRPA

# Variants of: B1
# Setup conditions: Sphingobium indicum (strain DSM 16413 / CCM 7287 / MTCC 6362 / UT26 / NBRC 101211 / UT26S); pH 7.5; Thermal; fluorescence; Na-Hepes 50 mM; reversible: no; structure 1MJ5; whole UniProt chain shown
Please note: Tm exactly at 50 °C is f. Only values below 50 °C get t.

Q. Item "Q172K" : Tm beneath 50 °C, strictly?
A. f

Q. Item "D166N" : Tm beneath 50 °C, strictly?
A. f

Q. Item S2C N47C : Tm beneath 50 °C, strictly?
A. t

Q. Item "L248W" : Tm beneath 50 °C, strictly?
A. f

Q. Item "A53L" : Tm beneath 50 °C, strictly?
A. f

Q. Item "D147M" : Tm beneath 50 °C, strictly?
A. f

Q. Item "D68H" : Tm beneath 50 °C, strictly?
A. f

Q. Item "A197P" : Tm beneath 50 °C, strictly?
A. f

// data source = FireProtDB (doi:10.1002/cbic.201402128)
